target or system: Vps34 (Homo sapiens, UniProt Q8NEB9)
Sequence (Q8NEB9 whole entry, species assumed): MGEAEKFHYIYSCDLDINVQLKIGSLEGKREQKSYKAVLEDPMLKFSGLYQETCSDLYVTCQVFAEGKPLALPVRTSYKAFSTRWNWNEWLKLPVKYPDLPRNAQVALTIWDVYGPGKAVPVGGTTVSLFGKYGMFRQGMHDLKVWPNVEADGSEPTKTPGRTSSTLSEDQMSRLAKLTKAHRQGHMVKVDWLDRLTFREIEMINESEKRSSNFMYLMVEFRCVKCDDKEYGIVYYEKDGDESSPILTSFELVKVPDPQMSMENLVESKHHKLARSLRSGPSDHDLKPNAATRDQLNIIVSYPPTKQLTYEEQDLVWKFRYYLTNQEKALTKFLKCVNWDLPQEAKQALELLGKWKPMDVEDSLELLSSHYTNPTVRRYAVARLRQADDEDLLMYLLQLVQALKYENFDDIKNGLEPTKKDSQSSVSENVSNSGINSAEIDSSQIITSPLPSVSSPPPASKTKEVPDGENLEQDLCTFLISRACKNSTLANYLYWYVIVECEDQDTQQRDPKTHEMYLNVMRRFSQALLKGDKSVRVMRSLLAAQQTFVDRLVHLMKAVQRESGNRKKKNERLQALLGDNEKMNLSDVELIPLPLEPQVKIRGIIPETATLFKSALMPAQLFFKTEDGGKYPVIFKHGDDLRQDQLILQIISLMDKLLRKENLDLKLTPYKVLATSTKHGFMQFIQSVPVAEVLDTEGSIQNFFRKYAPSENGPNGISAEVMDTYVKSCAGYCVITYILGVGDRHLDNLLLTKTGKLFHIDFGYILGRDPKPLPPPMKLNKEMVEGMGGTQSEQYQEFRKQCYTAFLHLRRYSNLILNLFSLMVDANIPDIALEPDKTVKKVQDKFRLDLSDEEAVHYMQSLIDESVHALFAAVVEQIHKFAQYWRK
protocol: Kinase Glo Luminescent Kinase Assay (Kglo), assay C
Type: biochemical
test settings: read-out: Assay C VPS34 IC50
value type: IC50

# query: IC50 of entry Cc1ccc(S(=O)(=O)NCC[C@@H](O)C(F)(F)F)cc1-c1cnc(N)c(-c2cn(C)nc2C)n1 (single isomer, unassigned) [Example 52a]
> 10 µM

And what about the compound Cc1ccc(S(=O)(=O)NCC(C)(C)O)cc1-c1cnc(N)c(-c2cnn(C)c2C)n1 [Example 46] ?
> 10 µM

And what about the compound COc1ccncc1-c1nc(-c2cc(S(=O)(=O)NCCC(C)(C)O)ccc2C)cnc1N [Example 119.2] ?
> 9.1 µM

And what about the compound Cc1ccc(S(=O)(=O)NCCC(C)(C)O)cc1-c1cnc(N)c(-c2cnn(CCC(C)C)c2)n1 [Example 119.26] ?
> 9.1 µM

And what about the compound Cc1ccc(S(=O)(=O)NC[C@@](C)(O)C(F)(F)F)cc1-c1cnc(N)c(-n2cncn2)n1 [Example 127.22] ?
> 10 µM

And what about the compound Cc1ccc(S(=O)(=O)NCC2(CO)CCOCC2)cc1-c1cnc(N)c(-n2cncn2)n1 [Example 127.50] ?
> 10 µM

And what about the compound Cc1ccc(S(=O)(=O)NCC2(C)COC2)cc1-c1cnc(N)c(-c2cn(C)nc2C)n1 [Example 17] ?
> 10 µM

And what about the compound Cc1ccc(S(=O)(=O)NCCC(C)(C)O)cc1-c1cnc(N)c(-c2ccoc2)n1 [Example 119.15] ?
> 9.1 µM

And what about the compound Cc1ccc(S(=O)(=O)NCCC(C)(C)O)cc1-c1cnc(N)c(-c2cnn(CC(F)(F)F)c2)n1 [Example 130] ?
> 9.1 µM

And what about the compound CCn1cc(-c2nc(-c3cc(S(=O)(=O)NCC(C)(C)O)ccc3C)cnc2N)nn1 [Example 83] ?
> 10 µM

And what about the compound Cc1ccc(S(=O)(=O)NCCC(C)(C)O)cc1-c1cnc(N)c(-c2ccc(N3CCCCC3)nc2)n1 [Example 119.23] ?
> 9.1 µM

And what about the compound Cc1ncc(-c2nc(-c3cc(S(=O)(=O)NCCC(C)(C)O)ccc3C)cnc2N)o1 [Example 119.40] ?
> 10 µM

And what about the compound Cc1ccc(S(=O)(=O)NCCC(C)(C)O)cc1-c1cnc(N)c(-c2cnn(Cc3ccccn3)c2)n1 [Example 119.37] ?
> 9.1 µM

And what about the compound Cc1cc(-c2nc(-c3cc(S(=O)(=O)NCC4CCCOC4)ccc3C)cnc2N)ccn1 (stereo not drawn) [Example 129.14] ?
> 9.1 µM

And what about the compound Cc1cc(C)c(S(=O)(=O)NCC(C)(C)O)cc1-c1cnc(N)c(-n2cncn2)n1 [Example 121] ?
> 10 µM

And what about the compound Cc1cc(-c2nc(-c3cc(S(=O)(=O)NCC(C)(C)CN(C)C)ccc3C)cnc2N)ccn1 [Example 129.24] ?
> 9.1 µM

And what about the compound Cc1cc(-c2nc(-c3cc(S(=O)(=O)N4CC[C@@H](N)C4)ccc3C)cnc2N)ccn1 [Example 129.40] ?
> 9.1 µM

And what about the compound Cc1ccc(S(=O)(=O)NC[C@@H]2CCC(C)(C)O2)cc1-c1cnc(N)c(-n2cncn2)n1 [Example 127.40] ?
> 10 µM

And what about the compound Cc1ccc(S(=O)(=O)NCCC(C)(C)O)cc1-c1cnc(N)c(-c2cnn(C)c2)n1 [Example 119.16] ?
6.23 µM

And what about the compound Cc1ccc(S(=O)(=O)NCC(C)(C)O)cc1-c1cnc(N)c(-c2nc(C3CC3)no2)n1 [Example 95] ?
> 9.55 µM

And what about the compound Cc1cc(-c2nc(-c3cc(S(=O)(=O)NC[C@H]4CCNC4)ccc3C)cnc2N)ccn1 [Example 129.36] ?
> 9.1 µM
